- TARGET: Phosphatidylinositol 4-phosphate 5-kinase type-1 gamma (Homo sapiens)
- Sequence (O60331 whole entry): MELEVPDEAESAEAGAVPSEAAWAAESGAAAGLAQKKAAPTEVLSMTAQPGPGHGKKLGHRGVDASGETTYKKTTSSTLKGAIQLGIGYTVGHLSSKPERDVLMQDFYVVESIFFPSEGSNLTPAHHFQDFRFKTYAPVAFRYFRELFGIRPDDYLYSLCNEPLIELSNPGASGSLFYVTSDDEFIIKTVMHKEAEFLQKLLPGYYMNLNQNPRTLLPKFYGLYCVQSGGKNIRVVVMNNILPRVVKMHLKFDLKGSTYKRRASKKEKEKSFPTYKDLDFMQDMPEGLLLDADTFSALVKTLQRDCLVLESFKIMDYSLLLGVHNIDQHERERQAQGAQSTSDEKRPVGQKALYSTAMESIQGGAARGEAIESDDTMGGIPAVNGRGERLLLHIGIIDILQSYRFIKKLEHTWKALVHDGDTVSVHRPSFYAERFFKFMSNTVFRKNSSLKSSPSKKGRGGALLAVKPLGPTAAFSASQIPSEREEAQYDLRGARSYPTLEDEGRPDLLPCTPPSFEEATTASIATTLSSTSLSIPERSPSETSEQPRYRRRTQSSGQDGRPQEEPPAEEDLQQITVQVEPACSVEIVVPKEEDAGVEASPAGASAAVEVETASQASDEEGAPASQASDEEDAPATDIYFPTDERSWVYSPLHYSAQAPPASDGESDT
OUTCOME MEASURE: IC50

{"STRUCTURE AS SMILES": "Cc1ccc(-c2ccc3nc(N)sc3c2)cn1", "TARGET": "Phosphatidylinositol 4-phosphate 5-kinase type-1 gamma (Homo sapiens)", "OUTCOME MEASURE": "IC50", "OBSERVED": "> 100 µM"}
{"STRUCTURE AS SMILES": "CCN(C)c1ccc(-c2ccc3nc(N)sc3c2)cn1", "TARGET": "Phosphatidylinositol 4-phosphate 5-kinase type-1 gamma (Homo sapiens)", "OUTCOME MEASURE": "IC50", "OBSERVED": "> 100 µM"}
{"STRUCTURE AS SMILES": "CCOc1ccc(-c2ccc3nc(N)sc3c2)cn1", "TARGET": "Phosphatidylinositol 4-phosphate 5-kinase type-1 gamma (Homo sapiens)", "OUTCOME MEASURE": "IC50", "OBSERVED": "> 100 µM"}
{"STRUCTURE AS SMILES": "Nc1nc2ccc(-c3ccc(CO)nc3)cc2s1", "TARGET": "Phosphatidylinositol 4-phosphate 5-kinase type-1 gamma (Homo sapiens)", "OUTCOME MEASURE": "IC50", "OBSERVED": "> 100 µM"}
{"STRUCTURE AS SMILES": "Nc1nc2ccc(-c3ccc(OCCO)nc3)cc2s1", "TARGET": "Phosphatidylinositol 4-phosphate 5-kinase type-1 gamma (Homo sapiens)", "OUTCOME MEASURE": "IC50", "OBSERVED": "> 100 µM"}

Exercise: What does the record list as IC50 for "CS(=O)(=O)c1cncc(-c2ccc3nc(N)sc3c2)c1" ?
Key: > 100 µM

Exercise: Ok, now "CNC(=O)c1ccc(-c2ccc3nc(N)sc3c2)cn1"
Key: 31.6 µM

Exercise: Also "O=c1cc(-c2ccc3nc(NCC4CCOCC4)sc3c2)ccn1CC1CC1" ?
Key: > 100 µM

Exercise: Also "CCNc1ccc(-c2ccc3nc(N)sc3c2)cn1" , if possible.
Key: 31.6 µM

Exercise: And for "CNCc1ccc(-c2ccc3nc(N)sc3c2)cn1" ?
Key: > 100 µM

Exercise: And then "CC(C)Oc1cncc(-c2ccc3nc(N)sc3c2)c1" , what is it?
Key: 31.6 µM

Exercise: Then this molecule: "CC(C)n1cc(-c2ccc3nc(N)sc3c2)cn1"
Key: 63.1 µM

Exercise: Entry to check: "Nc1nc2ccc(-c3cccnc3)cc2s1"
Key: 31.6 µM

====

- TARGET: Phosphatidylinositol 4,5-bisphosphate 3-kinase catalytic subunit gamma isoform (Homo sapiens)
- Sequence (P48736 whole entry, canonical isoform): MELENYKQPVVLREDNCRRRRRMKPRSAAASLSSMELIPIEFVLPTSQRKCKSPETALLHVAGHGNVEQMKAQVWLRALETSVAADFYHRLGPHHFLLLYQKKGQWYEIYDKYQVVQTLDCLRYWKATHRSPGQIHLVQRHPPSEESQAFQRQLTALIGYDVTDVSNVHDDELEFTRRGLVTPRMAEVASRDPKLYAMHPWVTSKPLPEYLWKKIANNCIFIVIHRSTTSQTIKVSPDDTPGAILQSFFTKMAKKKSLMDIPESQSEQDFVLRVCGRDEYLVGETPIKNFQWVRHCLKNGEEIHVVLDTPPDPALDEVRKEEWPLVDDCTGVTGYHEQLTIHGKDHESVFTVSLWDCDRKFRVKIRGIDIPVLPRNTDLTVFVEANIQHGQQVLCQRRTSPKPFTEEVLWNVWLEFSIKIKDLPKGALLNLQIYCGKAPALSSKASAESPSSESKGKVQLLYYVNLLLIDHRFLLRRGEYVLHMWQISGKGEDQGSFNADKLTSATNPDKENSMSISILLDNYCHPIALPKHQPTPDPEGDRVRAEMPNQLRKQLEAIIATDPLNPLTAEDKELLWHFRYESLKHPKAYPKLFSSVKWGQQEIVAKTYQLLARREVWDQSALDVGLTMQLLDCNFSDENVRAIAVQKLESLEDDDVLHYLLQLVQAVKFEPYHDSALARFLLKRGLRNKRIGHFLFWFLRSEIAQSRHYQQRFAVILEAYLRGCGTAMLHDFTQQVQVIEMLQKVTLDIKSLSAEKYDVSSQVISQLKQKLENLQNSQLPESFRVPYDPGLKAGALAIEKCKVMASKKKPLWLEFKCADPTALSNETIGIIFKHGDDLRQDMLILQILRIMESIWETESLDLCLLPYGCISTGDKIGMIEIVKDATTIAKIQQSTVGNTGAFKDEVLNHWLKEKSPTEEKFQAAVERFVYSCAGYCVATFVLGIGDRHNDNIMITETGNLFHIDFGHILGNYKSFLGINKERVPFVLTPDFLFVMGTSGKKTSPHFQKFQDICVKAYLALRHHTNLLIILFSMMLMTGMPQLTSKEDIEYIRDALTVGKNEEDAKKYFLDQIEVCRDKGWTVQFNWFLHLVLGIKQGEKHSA
- RUN DESCRIPTION: Inhibition of PI3Kgamma (unknown origin) pre-incubated for 20 mins before phosphatidylinositol 4, 5-bisphosphate substrate addition by kinase-glo plus luminescence assay
OUTCOME MEASURE: IC50 (µM)

a: CCOc1ccc(-c2ccc3nc(N)sc3c2)cn1
b: COCCOc1ccc(-c2ccc3nc(N)sc3c2)cn1
c: CN(C)C(=O)c1ccc(-c2ccc3nc(N)sc3c2)cn1
d: Cc1ccc(-c2ccc3nc(N)sc3c2)cn1
Exercise: Sort the entries above by IC50, smallest first. Output the labels ranked as instructed.
Key: d, a, b, c
(d: 1.26 µM, a: 2 µM, b: 3.16 µM, c: 20 µM)

a: CCn1cc(-c2ccc3nc(N)sc3c2)cn1
b: Nc1nc2ccc(-c3ncccn3)cc2s1
c: Nc1nc2ccc(-c3cnn(Cc4ccccc4)c3)cc2s1
d: O=c1cc(-c2ccc3nc(NCC4CCOCC4)sc3c2)ccn1CC1CC1
e: CC(C)Oc1cncc(-c2ccc3nc(N)sc3c2)c1
Exercise: Rank entries according to their IC50, from the largest number down. Labels, ranked as asked.
Key: b, d, a, c, e
(b: 31.6 µM, d: 15.8 µM, a: 3.16 µM, c: 2 µM, e: 0.251 µM)

a: Cn1ccc(-c2ccc3nc(N)sc3c2)n1
b: O=c1cc(-c2ccc3nc(NCC4CCS(=O)(=O)CC4)sc3c2)ccn1CC1CC1
Exercise: Between the entries labeled a and b , whose measured IC50 is lower? API: response body contains the label of the selected item.
Key: a
(a: 2.51 µM, b: 50.1 µM)
